# Target Or Test System: CDK4 CCND1 (human) (UniProt P24385+P11802)
# Sequence (P11802 whole entry, looked up): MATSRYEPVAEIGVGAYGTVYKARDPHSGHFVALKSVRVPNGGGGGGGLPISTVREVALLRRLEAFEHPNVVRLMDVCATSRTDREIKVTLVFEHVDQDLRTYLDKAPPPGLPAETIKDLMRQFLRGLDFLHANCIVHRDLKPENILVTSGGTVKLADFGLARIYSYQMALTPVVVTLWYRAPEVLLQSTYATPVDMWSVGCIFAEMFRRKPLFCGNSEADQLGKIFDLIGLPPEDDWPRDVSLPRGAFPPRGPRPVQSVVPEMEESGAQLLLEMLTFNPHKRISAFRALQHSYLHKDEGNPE
# Sequence (P24385 whole entry, looked up): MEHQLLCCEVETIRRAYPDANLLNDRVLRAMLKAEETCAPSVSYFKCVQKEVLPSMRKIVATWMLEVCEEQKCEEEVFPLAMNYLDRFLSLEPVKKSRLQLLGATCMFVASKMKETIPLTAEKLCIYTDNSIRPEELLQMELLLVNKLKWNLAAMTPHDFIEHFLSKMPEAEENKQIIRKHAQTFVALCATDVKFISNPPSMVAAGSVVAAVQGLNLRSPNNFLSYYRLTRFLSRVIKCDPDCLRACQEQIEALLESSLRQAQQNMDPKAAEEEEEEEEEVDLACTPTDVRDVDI
# Protocol Details: radiometric filter-binding kinase assay, Kinase HotSpot
# Condition Info: compound 0.5 µM; ATP 10 µM
Reported Metric: residual activity (%)
Response body: numeric value in %, unit text excluded.

N#Cc1c(NC(=O)c2cccc3ccccc23)sc2c1CCCC2 yielded residual activity of 98.7

Memo: O=C1NC(=O)c2c1c1c3ccccc3[nH]c1c1[nH]c3cc(Br)ccc3c21 , reported residual activity: 84.9

Entry CCOc1cc2ncnc(Nc3cccc(Br)c3)c2cc1OCC — recorded residual activity = 94.2

The recorded residual activity for entry Cc1cc(Nc2nc(-c3ccccc3)nc3ccccc23)n[nH]1 equals 100

###

# Target Or Test System: TSSK1B (human)
# Protocol Details: radiometric filter-binding kinase assay, Kinase HotSpot
# Condition Info: compound 0.5 µM; ATP 10 µM
Response key: 1 means residual activity >= 80%; -1 means residual activity < 80%.

In plain terms: is recorded residual activity at least 80% for N#CCCc1ccc2c(c1)-c1[nH]c3ccc([N+](=O)[O-])cc3c1CC(=O)N2 ?
-1

Identify whether the reported residual activity of the following compound is 80% or greater: N#C/C(=C1/Nc2ccccc2S1)c1ccnc(NCCc2cccnc2)n1
1

# check: residual activity of O=C(O)c1ccc2c3c1cccc3c(=O)n1c3ccccc3nc21 is greater than or equal to 80%
1

residual activity >= 80% for O=C1NC(=O)c2cc(Nc3ccc(F)cc3)c(Nc3ccc(F)cc3)cc21 ?
1

Would you say N/C(=N\N=C/c1ccc(-c2cccc([N+](=O)[O-])c2)o1)N[N+](=O)[O-] shows residual activity at minimum 80%?
1

Does CCc1nc(-c2ccc(OC)cc2)[nH]c1-c1ccncc1 have a reported residual activity of at least 80%?
1

Confirm if residual activity reported for the compound COc1cccc(-c2cc(=O)c3ccccc3o2)c1N is 80% or above.
1

Dear colleague, could you confirm whether COc1cc2ncnc(Nc3ccc(O)c(Br)c3)c2cc1OC has residual activity at or above 80%?
1

Could you verify whether the entry O=C1NC(=O)c2c1c1c3ccccc3[nH]c1c1[nH]c3cc(Br)ccc3c21 shows residual activity of no less than 80%?
1

Please check the record Cn1cc(/C=C2\C(=O)Nc3ccc(S(N)(=O)=O)cc32)c2ccccc21 and state if its residual activity is at or above 80%.
-1

Hi, just wondering whether COc1cc2c(N3CCN(C(=O)Nc4ccc(OC(C)C)cc4)CC3)ncnc2cc1OCCCN1CCCCC1 shows residual activity of 80% or higher.
1

Check if residual activity >= 80% (inclusive). Item: Nc1ncnc2c1cnn2-c1ccccc1
1

Tell me whether residual activity is at least 80% here: O=S(=O)(NCCNC/C=C/c1ccc(Br)cc1)c1cccc2cnccc12
1

Check if residual activity >= 80% (inclusive). Item: Cc1cc(Nc2nc(-c3ccccc3)nc3ccccc23)n[nH]1
-1

Determine whether measured residual activity meets or exceeds 80% for O=c1cc(N2CCOCC2)oc2c(-c3ccccc3)cccc12
1

In plain terms: is recorded residual activity at least 80% for c1ccc(-c2cnc(Nc3ccc(OCCN4CCCC4)cc3)s2)cc1 ?
1

###

# Target Or Test System: FLT1 (human)
# Protocol Details: radiometric filter-binding kinase assay, Kinase HotSpot
# Condition Info: compound 0.5 µM; ATP 10 µM
Reported Metric: residual activity (%)
Numeric only. Scale: %

Consider N#C/C(=C1/Nc2ccccc2S1)c1ccnc(NCCc2cccnc2)n1 . Its measured residual activity is 74

Quick note, residual activity for COc1cc2c(cc1OC)-c1[nH]nc(Nc3cccc(F)c3)c1C2 landed at 82.6

Field residual activity (entry N#Cc1c(NC(=O)c2cccc3ccccc23)sc2c1CCCC2 ) reads 84.4

Sample O=c1c2ccccc2[nH]c(=S)n1CCN1CCC(=C(c2ccc(F)cc2)c2ccc(F)cc2)CC1 ; residual activity observed: 95.2

Measured residual activity, Cn1cc(/C=C2\C(=O)Nc3ccc(S(N)(=O)=O)cc32)c2ccccc21 : 70.1

Briefly, residual activity measured for CCc1nc(-c2ccc(OC)cc2)[nH]c1-c1ccncc1 : 90.2

residual activity for FC(F)(F)c1ccc(/C=C/c2nc(COc3ccc(CCCCn4ccnn4)cc3)co2)cc1 is 95.5

response.value for O=C(O)c1ccc2c3c1cccc3c(=O)n1c3ccccc3nc21 (field: residual activity) = 86.5

The recorded residual activity for entry CCCCc1c(-c2ccc(O)cc2)[nH]c2nccnc12 equals 86.3

Form: compound = COc1cccc(-c2cc(=O)c3ccccc3o2)c1N ; residual activity = 87.7

Just so you know, measured residual activity for c1ccc(-c2cnc(Nc3ccc(OCCN4CCCC4)cc3)s2)cc1 came out at 74.5

###

# Target Or Test System: PRKCH (human)
# Protocol Details: radiometric filter-binding kinase assay, Kinase HotSpot
# Condition Info: compound 0.5 µM; ATP 10 µM
Reported Metric: residual activity (%)
State just the number; it will be interpreted in %.

Given the compound Cc1cc(Nc2nc(-c3ccccc3)nc3ccccc23)n[nH]1 and test system PRKCH (human), the measured residual activity is 89.6

Measured residual activity (PRKCH (human)), entry O=c1c(-c2ccc(F)cc2)c(-c2ccncc2)[nH]n1-c1ccc(Cl)cc1 : 89

Reading of residual activity for O=S(=O)(NCCNC/C=C/c1ccc(Br)cc1)c1cccc2cnccc12 with PRKCH (human): 53.2

// compound O=c1[nH]c2ccccc2n1C1CCN(Cc2ccc(-c3nc4cc5[nH]cnc5cc4nc3-c3ccccc3)cc2)CC1 , assay PRKCH (human), residual activity value: 101

The compound N/C(=N\N=C/c1ccc(-c2cccc([N+](=O)[O-])c2)o1)N[N+](=O)[O-] , tested on PRKCH (human), showed residual activity of 98.1

Test item O=C1NC(=O)c2cc(Nc3ccc(F)cc3)c(Nc3ccc(F)cc3)cc21 ; PRKCH (human); reported residual activity was 83.3

###

# Target Or Test System: MST1R (human) (UniProt Q04912)
# Sequence (Q04912 whole entry, looked up): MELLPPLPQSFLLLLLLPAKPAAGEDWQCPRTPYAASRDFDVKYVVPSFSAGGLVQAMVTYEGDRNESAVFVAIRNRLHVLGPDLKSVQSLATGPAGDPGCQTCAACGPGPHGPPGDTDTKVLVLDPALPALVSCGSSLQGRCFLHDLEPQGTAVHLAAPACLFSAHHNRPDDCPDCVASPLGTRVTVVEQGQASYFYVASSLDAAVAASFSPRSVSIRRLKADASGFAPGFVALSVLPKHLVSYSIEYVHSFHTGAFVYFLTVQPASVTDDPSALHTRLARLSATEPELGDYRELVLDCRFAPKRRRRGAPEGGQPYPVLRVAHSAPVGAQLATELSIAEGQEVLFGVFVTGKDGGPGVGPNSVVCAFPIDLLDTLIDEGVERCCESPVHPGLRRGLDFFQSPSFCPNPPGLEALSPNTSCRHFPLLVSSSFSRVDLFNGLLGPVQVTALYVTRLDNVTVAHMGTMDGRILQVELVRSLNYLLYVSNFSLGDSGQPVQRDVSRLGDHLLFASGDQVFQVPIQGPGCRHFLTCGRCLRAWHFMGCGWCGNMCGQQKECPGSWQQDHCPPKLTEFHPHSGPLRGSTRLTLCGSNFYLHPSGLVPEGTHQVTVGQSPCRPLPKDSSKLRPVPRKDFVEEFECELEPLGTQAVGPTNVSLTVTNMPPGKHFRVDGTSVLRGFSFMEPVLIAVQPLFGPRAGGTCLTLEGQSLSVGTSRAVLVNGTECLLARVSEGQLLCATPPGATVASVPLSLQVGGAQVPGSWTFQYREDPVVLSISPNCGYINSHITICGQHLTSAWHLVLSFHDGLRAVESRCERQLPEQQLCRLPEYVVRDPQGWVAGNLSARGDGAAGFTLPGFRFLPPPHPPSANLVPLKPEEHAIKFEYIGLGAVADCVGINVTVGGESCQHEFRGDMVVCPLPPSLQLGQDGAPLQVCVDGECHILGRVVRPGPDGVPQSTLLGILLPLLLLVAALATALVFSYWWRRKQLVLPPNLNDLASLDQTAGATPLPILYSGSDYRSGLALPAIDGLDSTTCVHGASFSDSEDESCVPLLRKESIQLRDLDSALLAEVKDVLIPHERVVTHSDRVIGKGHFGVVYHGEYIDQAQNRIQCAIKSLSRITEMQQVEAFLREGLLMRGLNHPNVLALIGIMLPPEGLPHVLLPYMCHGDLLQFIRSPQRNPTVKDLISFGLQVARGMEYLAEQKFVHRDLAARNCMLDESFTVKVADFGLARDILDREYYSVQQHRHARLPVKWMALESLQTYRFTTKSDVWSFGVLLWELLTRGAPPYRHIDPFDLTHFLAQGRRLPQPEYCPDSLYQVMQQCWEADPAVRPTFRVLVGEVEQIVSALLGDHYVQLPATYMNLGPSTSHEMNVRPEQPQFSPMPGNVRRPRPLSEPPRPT
# Protocol Details: radiometric filter-binding kinase assay, Kinase HotSpot
# Condition Info: compound 0.5 µM; ATP 10 µM
Reported Metric: residual activity (%)
Hi! Could you send only the number? It should be in %, unit omitted.

Recorded residual activity for CCCCc1c(-c2ccc(O)cc2)[nH]c2nccnc12 on MST1R (human) (UniProt Q04912) was 101

residual activity value, target or system MST1R (human) (UniProt Q04912), for N/C(=N\N=C/c1ccc(-c2cccc([N+](=O)[O-])c2)o1)N[N+](=O)[O-] : 97.6

MST1R (human) (UniProt Q04912) residual activity of N#C/C(=C1/Nc2ccccc2S1)c1ccnc(NCCc2cccnc2)n1 is 93.5

Item N#CCCc1ccc2c(c1)-c1[nH]c3ccc([N+](=O)[O-])cc3c1CC(=O)N2 ; assay system MST1R (human) (UniProt Q04912); residual activity reported as 107

Entry O=c1[nH]c2ccccc2n1C1CCN(Cc2ccc(-c3nc4cc5[nH]cnc5cc4nc3-c3ccccc3)cc2)CC1 , tested on MST1R (human) (UniProt Q04912), has a reported residual activity of 111

Reported residual activity (MST1R (human) (UniProt Q04912)) for entry COc1cccc(-c2cc(=O)c3ccccc3o2)c1N is 93.4

Item CCOc1cc2ncnc(Nc3cccc(Br)c3)c2cc1OCC was tested on MST1R (human) (UniProt Q04912); the reported residual activity is 102

CCc1nc(-c2ccc(OC)cc2)[nH]c1-c1ccncc1 tested on MST1R (human) (UniProt Q04912) gave residual activity: 101

Tested on MST1R (human) (UniProt Q04912), the item c1ccc(-c2cnc(Nc3ccc(OCCN4CCCC4)cc3)s2)cc1 showed residual activity equal to 107

Reading of residual activity for O=c1c2ccccc2[nH]c(=S)n1CCN1CCC(=C(c2ccc(F)cc2)c2ccc(F)cc2)CC1 with MST1R (human) (UniProt Q04912): 103

Entry COc1cc2c(Nc3ccc(Br)cc3F)ncnc2cc1OCC1CCN(C)CC1 , MST1R (human) (UniProt Q04912) data, residual activity value: 93.6

Record O=c1cc(N2CCOCC2)oc2c(-c3ccccc3)cccc12 ; system MST1R (human) (UniProt Q04912); residual activity = 109

// residual activity (MST1R (human) (UniProt Q04912)) for N#Cc1c(NC(=O)c2cccc3ccccc23)sc2c1CCCC2 = 92.5

Tested system MST1R (human) (UniProt Q04912); residual activity recorded for O=C(c1ccccc1)c1ccc(N2CCOCC2)cc1O was 106

Sample COc1cc2c(N3CCN(C(=O)Nc4ccc(OC(C)C)cc4)CC3)ncnc2cc1OCCCN1CCCCC1 , system: MST1R (human) (UniProt Q04912). Its residual activity is 99.2

###

# Target Or Test System: UniProt P15735
# Sequence (P15735 whole entry, looked up): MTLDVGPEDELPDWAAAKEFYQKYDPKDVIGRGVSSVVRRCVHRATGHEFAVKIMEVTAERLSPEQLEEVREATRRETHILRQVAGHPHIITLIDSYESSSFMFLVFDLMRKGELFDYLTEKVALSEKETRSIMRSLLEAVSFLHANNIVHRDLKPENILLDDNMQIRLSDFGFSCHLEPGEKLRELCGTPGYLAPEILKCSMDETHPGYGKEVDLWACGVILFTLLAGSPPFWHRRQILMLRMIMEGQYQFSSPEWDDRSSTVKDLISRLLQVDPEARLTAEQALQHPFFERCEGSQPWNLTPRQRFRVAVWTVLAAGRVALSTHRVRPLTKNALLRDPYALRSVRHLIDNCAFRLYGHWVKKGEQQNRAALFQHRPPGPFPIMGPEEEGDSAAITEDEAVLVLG
# Protocol Details: radiometric filter-binding kinase assay, Kinase HotSpot
# Condition Info: compound 0.5 µM; ATP 10 µM
Reported Metric: residual activity (%)
Write the number in % without appending the unit.

# residual activity of CCc1nc(-c2ccc(OC)cc2)[nH]c1-c1ccncc1 = 111

// residual activity lookup, compound = COc1cc2ncnc(Nc3ccc(O)c(Br)c3)c2cc1OC , result: 98

Entry c1ccc(-c2cnc(Nc3ccc(OCCN4CCCC4)cc3)s2)cc1 ; residual activity = 97

The compound O=C(c1ccccc1)c1ccc(N2CCOCC2)cc1O showed residual activity equal to 101

Summary for this compound, N#C/C(=C1/Nc2ccccc2S1)c1ccnc(NCCc2cccnc2)n1 : residual activity is 99.5

Entry COc1cc2c(cc1OC)-c1[nH]nc(Nc3cccc(F)c3)c1C2 — recorded residual activity = 121

residual activity reported for this compound O=c1c2ccccc2[nH]c(=S)n1CCN1CCC(=C(c2ccc(F)cc2)c2ccc(F)cc2)CC1 : 100

The compound identified as CCCCc1c(-c2ccc(O)cc2)[nH]c2nccnc12 registered its residual activity at 100

Lookup result for CCOc1cc2ncnc(Nc3cccc(Br)c3)c2cc1OCC ; measured residual activity: 101

Recorded result, N/C(=N\N=C/c1ccc(-c2cccc([N+](=O)[O-])c2)o1)N[N+](=O)[O-] , residual activity: 100

The value of residual activity measured for the compound COc1cccc(-c2cc(=O)c3ccccc3o2)c1N turned out to be 117

Quick note, residual activity for O=C1NC(=O)c2cc(Nc3ccc(F)cc3)c(Nc3ccc(F)cc3)cc21 landed at 97.1

Reported residual activity for COc1cc2c(Nc3ccc(Br)cc3F)ncnc2cc1OCC1CCN(C)CC1 was 99.1

The measured residual activity associated with N#Cc1c(NC(=O)c2cccc3ccccc23)sc2c1CCCC2 reads 101

For COc1cc2c(N3CCN(C(=O)Nc4ccc(OC(C)C)cc4)CC3)ncnc2cc1OCCCN1CCCCC1 the compound record lists residual activity as 98.9

Query O=S(=O)(NCCNC/C=C/c1ccc(Br)cc1)c1cccc2cnccc12 yields residual activity of 88.8

Given item O=c1cc(N2CCOCC2)oc2c(-c3ccccc3)cccc12 , the value recorded as its residual activity is 97.2

Quick note, residual activity for Cn1cc(/C=C2\C(=O)Nc3ccc(S(N)(=O)=O)cc32)c2ccccc21 landed at 52

Entry Cc1cc(Nc2nc(-c3ccccc3)nc3ccccc23)n[nH]1 — recorded residual activity = 86.3

According to the records, this compound N#CCCc1ccc2c(c1)-c1[nH]c3ccc([N+](=O)[O-])cc3c1CC(=O)N2 displays residual activity of 99.1

Per the records, this compound ( O=C1NC(=O)c2c1c1c3ccccc3[nH]c1c1[nH]c3cc(Br)ccc3c21 ) has residual activity equal to 94.8

The recorded residual activity for entry Nc1ncnc2c1cnn2-c1ccccc1 equals 94.1

Note to self: residual activity recorded for O=c1c(-c2ccc(F)cc2)c(-c2ccncc2)[nH]n1-c1ccc(Cl)cc1 was 121

Reference source for all entries: the kinase profiling compilation of Christmann-Franck et al. (2016)
